- assay.target: UniProtKB P20456
- Sequence (P20456 whole entry): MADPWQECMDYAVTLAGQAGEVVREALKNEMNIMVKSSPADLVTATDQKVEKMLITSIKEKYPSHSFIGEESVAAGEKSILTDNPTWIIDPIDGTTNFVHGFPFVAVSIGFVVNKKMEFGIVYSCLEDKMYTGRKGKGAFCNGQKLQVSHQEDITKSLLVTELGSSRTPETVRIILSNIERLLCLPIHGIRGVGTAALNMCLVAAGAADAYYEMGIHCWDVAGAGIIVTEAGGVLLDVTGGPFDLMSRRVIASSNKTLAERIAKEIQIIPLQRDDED
- method: Tested for the inhibitory activity against recombinant bovine brain myo-inositol monophosphatase
parameter: IC50
Please report the result as a number followed by the unit.

# per-item lookup of IC50; items listed below
1. O=P(O)(O)C(Cc1ccccc1)(O[C@@H]1CC[C@@H](O)C[C@@H]1O)P(=O)(O)O
2. CC(Oc1ccc(O)cc1O)(P(=O)(O)O)P(=O)(O)O
3. CC(Oc1ccc(O)cc1)(P(=O)(O)O)P(=O)(O)O

*A*
1. 19200 nM
2. 4400 nM
3. 330 nM

Record summary for O=P(O)(O)C(Cc1ccccc1)(Oc1ccc(O)cc1)P(=O)(O)O : reported IC50 = 500 nM
